target: bovine cardiac myofibrils (full-length cardiac myosin ATPase in the native sarcomere) (Bos taurus (Bovine), UniProt Q9BE39); test: Skinned bovine cardiac myofibril ATPase assay (PK/LDH-coupled); conditions: Ca2+ activating to 75% of maximal rate, read-out: CDMF75 IC50
Sequence (Q9BE39 whole entry): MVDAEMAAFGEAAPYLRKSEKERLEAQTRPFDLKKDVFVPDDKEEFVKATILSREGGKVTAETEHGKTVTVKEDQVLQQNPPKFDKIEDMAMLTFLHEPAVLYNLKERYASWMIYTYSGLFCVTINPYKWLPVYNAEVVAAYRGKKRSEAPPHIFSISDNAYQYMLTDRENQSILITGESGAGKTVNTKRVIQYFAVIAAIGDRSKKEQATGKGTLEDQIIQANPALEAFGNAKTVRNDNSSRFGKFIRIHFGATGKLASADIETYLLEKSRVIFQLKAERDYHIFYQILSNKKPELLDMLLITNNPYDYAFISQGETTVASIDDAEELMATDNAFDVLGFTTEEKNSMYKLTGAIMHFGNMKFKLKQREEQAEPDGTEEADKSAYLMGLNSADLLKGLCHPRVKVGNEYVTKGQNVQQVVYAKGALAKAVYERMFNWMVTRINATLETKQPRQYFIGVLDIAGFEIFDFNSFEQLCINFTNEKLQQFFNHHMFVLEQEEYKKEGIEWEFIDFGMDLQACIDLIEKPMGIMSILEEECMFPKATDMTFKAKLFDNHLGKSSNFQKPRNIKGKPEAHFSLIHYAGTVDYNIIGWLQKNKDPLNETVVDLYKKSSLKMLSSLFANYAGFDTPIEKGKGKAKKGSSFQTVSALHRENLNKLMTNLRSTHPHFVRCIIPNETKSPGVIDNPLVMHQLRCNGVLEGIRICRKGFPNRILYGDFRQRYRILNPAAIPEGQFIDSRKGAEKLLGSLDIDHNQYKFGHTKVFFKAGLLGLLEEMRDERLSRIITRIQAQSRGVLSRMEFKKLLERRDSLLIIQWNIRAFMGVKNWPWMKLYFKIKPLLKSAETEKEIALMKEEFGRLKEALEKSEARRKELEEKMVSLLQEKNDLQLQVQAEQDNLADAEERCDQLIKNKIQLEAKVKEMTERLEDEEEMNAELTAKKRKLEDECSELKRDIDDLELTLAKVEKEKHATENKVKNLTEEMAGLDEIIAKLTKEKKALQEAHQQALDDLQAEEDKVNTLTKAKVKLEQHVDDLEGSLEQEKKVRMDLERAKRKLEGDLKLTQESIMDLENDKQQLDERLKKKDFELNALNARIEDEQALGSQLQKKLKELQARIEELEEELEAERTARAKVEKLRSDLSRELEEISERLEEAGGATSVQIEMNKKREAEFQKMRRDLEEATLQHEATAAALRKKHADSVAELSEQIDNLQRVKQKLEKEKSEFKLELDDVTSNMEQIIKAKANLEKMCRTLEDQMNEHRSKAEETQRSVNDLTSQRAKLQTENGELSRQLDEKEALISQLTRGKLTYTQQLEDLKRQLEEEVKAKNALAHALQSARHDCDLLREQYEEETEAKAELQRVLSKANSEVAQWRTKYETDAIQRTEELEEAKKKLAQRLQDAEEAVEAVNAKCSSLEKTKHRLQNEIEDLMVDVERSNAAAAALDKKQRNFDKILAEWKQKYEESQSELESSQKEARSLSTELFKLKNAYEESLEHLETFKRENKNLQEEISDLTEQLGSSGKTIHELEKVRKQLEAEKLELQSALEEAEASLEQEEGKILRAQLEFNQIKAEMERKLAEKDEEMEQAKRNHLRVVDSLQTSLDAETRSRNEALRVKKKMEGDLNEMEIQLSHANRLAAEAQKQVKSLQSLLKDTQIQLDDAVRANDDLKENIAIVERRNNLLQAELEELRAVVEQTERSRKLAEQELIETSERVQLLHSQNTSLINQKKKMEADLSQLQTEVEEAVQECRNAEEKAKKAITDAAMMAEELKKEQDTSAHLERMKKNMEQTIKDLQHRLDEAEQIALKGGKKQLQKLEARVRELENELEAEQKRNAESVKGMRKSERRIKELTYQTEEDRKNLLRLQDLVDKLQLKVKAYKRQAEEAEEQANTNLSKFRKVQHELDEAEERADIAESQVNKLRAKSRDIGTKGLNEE
Sequence (P85100 whole entry partner): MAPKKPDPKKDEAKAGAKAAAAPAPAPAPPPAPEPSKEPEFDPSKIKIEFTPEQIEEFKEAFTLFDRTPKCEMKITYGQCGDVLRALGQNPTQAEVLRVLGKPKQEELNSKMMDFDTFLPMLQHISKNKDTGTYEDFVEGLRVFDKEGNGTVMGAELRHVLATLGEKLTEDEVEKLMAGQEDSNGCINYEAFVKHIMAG
Sequence (Q3SZE5 whole entry partner): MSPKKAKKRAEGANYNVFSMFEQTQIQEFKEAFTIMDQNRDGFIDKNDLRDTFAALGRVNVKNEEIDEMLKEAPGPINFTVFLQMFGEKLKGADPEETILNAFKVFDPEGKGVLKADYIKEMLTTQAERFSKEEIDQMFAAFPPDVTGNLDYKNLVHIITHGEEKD
pIC50: −log10 of the molar value.
QUANTITY KIND: pIC50

Consider the following illustrative entries.
> print(dat)
                                   compound  measured.number
1  CCc1nc(-c2ccc3c(c2)CC[C@H]3NC(=O)c2cnoc2C)no1 [Compound 564]             6.22
2  Cc1cnc(C(=O)N[C@@H]2CCc3cc(-c4noc(C(F)F)n4)ccc32)o1 [Compound 681]             5.23
3  Cc1ncc(C(=O)N[C@@H]2COc3cc(-c4noc(C5(C)CC5)n4)ccc32)o1 [Compound 466]             5.54
4  [2H]C([2H])([2H])c1nc(-c2ccc3c(c2)CC[C@H]3NC(=O)C(F)F)no1 [Compound 442]             4.90
5  O=C(N[C@@H]1CCc2cc(-c3noc(C4CC4)n3)ccc21)OCC1CC1 [Compound 326]             5.62
6  [2H]C([2H])([2H])c1nc(-c2ccc3c(c2)CC[C@H]3NC(=O)c2ccnn2C)no1 [Compound 242]             5.82

[P] Cc1cc(C(=O)N[C@@H]2CCc3cc(-c4cc(C)on4)ccc32)ccn1 [Compound 138]
[Q] Cc1nn(C)cc1C(=O)N[C@@H]1CCc2cc(-c3noc(C4CC4)n3)ccc21 [Compound 154]
Enquiry: Of P and Q , whose reported pIC50 is numerically smaller? Could you answer with the label of the item you picked?
Return: P

[P] [2H]C([2H])([2H])c1nc(-c2ccc3c(c2)CC[C@H]3NC(=O)c2cnn(C)c2C)no1 [Compound 250]
[Q] [2H]C([2H])([2H])c1nc(-c2ccc3c(c2)CC[C@H]3NC(=O)c2cnn(CCO)c2)no1 [Compound 519]
[R] CCc1nc(-c2ccc3c(c2)CC[C@H]3NC(=O)c2ncncc2C)no1 [Compound 643]
Enquiry: List the 3 entries from lowest pIC50 to highest pIC50 value. Please reply with the labels ordered as requested. Many thanks.
Return: Q, P, R
(Q: 5.06, P: 5.44, R: 5.68)

[I] COCc1nc(-c2ccc3c(c2)CC[C@H]3NC(=O)c2cnc(C)s2)no1 [Compound 696]
[II] Cc1nc(-c2ccc3c(c2)OC[C@@H]3NC(=O)c2oc(C)nc2C)no1 [Compound 160]
[III] Cc1nc(C(=O)NC2CCc3cc(-c4noc(C(F)F)n4)ccc32)no1 (centres unmarked) [Compound 84]
[IV] Cc1nc(-c2ccc3c(c2)CC[C@H]3NC(=O)c2oncc2C)no1 [Compound 113]
Enquiry: List the 4 entries from lowest pIC50 to highest pIC50 value. Please reply with the labels ordered as requested. Many thanks.
Return: II, III, I, IV
(II: 4.50, III: 4.97, I: 5.38, IV: 5.89)

[P] [2H]C([2H])([2H])c1nc(-c2ccc3c(c2)CC[C@H]3NC(=O)c2ccnc(C)c2)no1 [Compound 245]
[Q] Cc1nc(-c2ccc3c(c2)CC[C@H]3NC(=O)c2cccc([C@@H](C)O)c2)no1 [Compound 726]
Enquiry: Quick check, higher pIC50 between P and Q ? Could you answer with the label of the item you picked?
Return: P
(P: 5.47, Q: 5.22)

Source listed as patent US12065436B2.
